Where do the numbers come from? From PubChem BioAssay.

Tested on: Sam68 (KHDRBS1)
experimental details: compounds binding KHDRBS1 protein – biochemical, small-molecule microarray, 635 nm fluorescence, primary screen (AID 1125);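 also: score merges 667 nm channel intensity with signal to noise over triplicate slides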
test settings: higher = more signal
Class true: composite z-score at least 0.8. Class false: composite z-score below 0.8.

Textbook exercise: given the entry COc1cc2c(cc1O)C(C1CC1)N(C)CC2 (configuration not stated) , state whether its composite z-score is greater than or equal to 0.8.
false

Decide: composite z-score of COCCCNC(=O)[C@@]1(CCC(=O)OC(C)(C)C)N=C(c2ccc(OCCCO)cc2)O[C@H]1c1ccccc1N=[N+]=[N-] >= 0.8?
true

Exam item: decide whether the reported composite z-score for CC1=C2[C@@H](CCc3ccccc3)OB(O)C[C@@H]2[C@@H]2C(=O)N(Cc3ccccc3)C(=O)[C@@H]2C1 is at least 0.8.
false

Determine whether this molecule has composite z-score no lower than 0.8: C=C(/C(=C/C[C@H](OC(=O)c1ccncc1)c1ccc(CO)o1)c1cnc2ccccc2c1)C(C)C
true

Quick check, composite z-score >= 0.8? CCC1=C2CN(Cc3ccccc3)[C@@H](C(=O)Cc3ccccc3)C2C=CCC1 (some centres not stated)
false

Check if composite z-score >= 0.8 (inclusive). Item: CO[C@H]1O[C@H](CO)[C@@H](OC(=O)CCc2ccccc2)[C@@H]2OC(=O)[C@@H](Cc3ccccc3)C/C=C/C[C@H](Cc3ccccc3)C(=O)O[C@@H]12
true

Hi team, for COc1ccc([Si](C)(C)[C@H]2[C@H](CC(=O)N3Cc4ccccc4C[C@H]3CO)O[C@@]3(C(=O)N(Cc4ccc(N5CCOC5=O)cc4)c4ccccc43)[C@@H]2C)cc1 , is the recorded composite z-score at or above 0.8?
true

Decide: is the reported value of composite z-score for CC(C)C(CO)N1C(=O)[C@@H]2[C@H]3C(=O)OCC=C[C@H]3OC23C=CCN(c2ccc(Cl)cc2)C(=O)[C@@H]13 (some centres not stated) equal to or greater than 0.8?
false

Evaluate COCC(=C=CC[C@H](O)c1ccc(OCCO)cc1)CCO : composite z-score at minimum 0.8?
false

For this molecule, is measured composite z-score 0.8 or higher? CCCNC(=O)[C@@]1(C)c2ccccc2C(=O)N(c2ccc(C)cn2)[C@H]1c1ccc(CO)cc1
false

Does the molecule C=CCNC(=O)[C@@H]1[C@H]2C(=O)O[C@H](c3ccccc3)[C@H](c3ccccc3)N2[C@H](c2ccc(O)cc2)[C@@]12C(=O)N(C(=O)OCCOC)c1ccc(C#CC3=CCCCC3)cc12 have recorded composite z-score that is 0.8 or more?
true

Is composite z-score for C#Cc1cc2ccccc2oc1=O at or above 0.8?
false

Confirm if composite z-score reported for the molecule C=C[C@@H](OC)[C@H](OC(=O)Nc1ccc(OC)cc1)c1ccc(O)c(F)c1 is 0.8 or above.
false

Given the entry CCCCCCCCCC(O)C1C=CC2C(=O)N(c3ccccc3)C(=O)C2N1Nc1cc(OC)c(OC)c(OC)c1 (configuration not stated) , answer whether its composite z-score meets or surpasses 0.8.
false

Form field: composite z-score at least 0.8? Entry: CCCCCC1=C2CNC(C)(C(=O)OC)C=C2C(C)C1=O (configuration not stated)
false

Does C=CC[C@@H](OC(=O)Nc1ccc(SC)cc1)c1ccc(O)c(F)c1 have a reported composite z-score of at least 0.8?
false

Quick check: does CCOC(=O)[C@@H]1CCCCN1C(=O)C(=O)OC have composite z-score greater than or equal to 0.8?
false

Assess whether reported composite z-score for C=C(COC)/C(=C/C[C@H](OC(=O)c1ccncc1)c1ccc(CO)o1)c1cnc2ccccc2c1 sits at 0.8 or higher.
true

Is it the case that O=C1NC(=O)C2C1C=CC(C(O)c1ccco1)N2Nc1ccc(Cl)cc1Cl (configuration not stated) has composite z-score reaching or exceeding 0.8?
false

Would you say NCCCCCNC(=O)[C@@H]1C[C@@H]2C(=O)N[C@@H](CCCCN)C(=O)N2[C@@H]1c1ccc(O)cc1 shows composite z-score at minimum 0.8?
true

Confirm if composite z-score reported for the molecule CS(=O)(=O)CCOC(=O)C1=CC(c2ccc(CO)cc2)=CC(C2CC2)N(Cc2sc3ccccc3c2Cl)C=C1C(=O)OCCS(C)(=O)=O (configuration not stated) is 0.8 or above.
true

Would you say C=CC[C@H](OC(=O)Nc1ccc(SC)cc1)c1ccc(O)c2ccccc12 shows composite z-score at minimum 0.8?
true

For this molecule, is measured composite z-score 0.8 or higher? C=CCC(OC(C)=O)[C@@H]1[C@@H](N(Cc2ccc(-c3ccccc3)cc2)C(=O)c2ccc(-c3ccccc3)cc2)c2cc(OCCCO)ccc2N1C(=O)c1ccc2ccccc2c1 (some centres not stated)
false

Entry COc1ccc([Si](C)(C)[C@@H]2[C@@H](CC(=O)N3Cc4ccccc4C[C@H]3CO)O[C@]3(C(=O)N(Cc4ccc(N5C(=O)c6cccc7cccc5c67)cc4)c4ccccc43)[C@H]2C)cc1 : is its composite z-score no less than 0.8?
true

Is composite z-score for COc1cc(NN2C(C(O)c3cc(OC)c(OC)c(OC)c3)C=CC3C(=O)N(C)C(=O)C32)cc(OC)c1OC (configuration not stated) at or above 0.8?
true

In plain terms: is recorded composite z-score at least 0.8 for COc1ccc([Si](C)(C)[C@@H]2[C@@H](CCO)O[C@]3(C(=O)N(Cc4cccc(NC(=O)[C@H](C)O)c4)c4ccccc43)[C@H]2C)cc1 ?
true

composite z-score >= 0.8 for COC(=O)[C@@]1(Cc2ccc(OC)cc2)[C@H]2c3cc(C(=O)N(C)C)n(Cc4ccc(OC(F)(F)F)cc4)c3C[C@H]2CN1C(=O)c1ccccc1 ?
false

Hi team, for CO[C@H]1O[C@H](CO)[C@@H](OC(=O)Nc2ccccc2)[C@H](OC(=O)c2cc3ccccc3[nH]2)[C@H]1OC(=O)c1cc2ccccc2[nH]1 , is the recorded composite z-score at or above 0.8?
false

Determine whether measured composite z-score meets or exceeds 0.8 for CCCCC[C@H]1OC[C@@]23C=C(Br)[C@@H](CC12)[C@@]1(CO1)C3=O (some centres not stated)
false

Has C=CCC(OC(C)=O)[C@@H]1[C@@H](N(Cc2cc3ccccc3o2)C(=O)Cc2ccc(F)cc2)c2cc(OCCCO)ccc2N1C(=O)Cc1ccc2ccccc2c1 (some centres not stated) a recorded composite z-score greater than or equal to 0.8?
false

Exam item: decide whether the reported composite z-score for O=C(O)[C@@H]1[C@@H]2C(=O)N(c3ccccc3)C(=O)[C@@H]2C[C@@H]1Sc1ccccc1 is at least 0.8.
false

* * *

target or system: Follistatin (Homo sapiens)
experimental details: FST protein binding to printed compounds – biochemical, small-molecule microarray, 635/667 nm fluorescence, primary screen (AID 1132)
test settings: 635 nm fluorescence, higher = more signal
Use 0.2 as the dividing line for composite z-score, with the line itself on the TRUE side and lower values as FALSE.

Entry COCCOC(=O)N1C(=O)[C@@]2(c3cc(C#CCC(C(=O)OC)C(=O)OC)ccc31)[C@H](c1ccc(OCCO)cc1)N1[C@H](c3ccccc3)[C@H](c3ccccc3)OC(=O)[C@H]1[C@@H]2C(=O)N1CCc2cc(OC)c(OC)cc2C1 : is its composite z-score no less than 0.2?
TRUE

Is it the case that CCC#CCN(Cc1ccccc1Br)[C@H](/C=C/C1CC1)[C@@H](O)Cc1ccccc1 has composite z-score reaching or exceeding 0.2?
FALSE

State whether the measured composite z-score reaches 0.2, counting equality as reaching it, for CCCNC(=O)[C@@H]1c2ccccc2C(=O)N(Cc2ccc(OC(F)(F)F)cc2)[C@H]1c1ccc(CO)cc1
TRUE

Threshold query (composite z-score >= 0.2) on CC[C@@H]1C=C(C(=O)O)[C@H](c2ccc(C#N)cc2)N1S(=O)(=O)c1ccc(C)cc1
FALSE

composite z-score >= 0.2 for COc1ccc([Si](C)(C)[C@H]2[C@H](CC(=O)N3CCC[C@H]3CO)O[C@@]3(C(=O)N(Cc4ccc(N5CCOC5=O)cc4)c4ccccc43)[C@@H]2C)cc1 ?
TRUE

Item COC(=O)C1(CC(C)C)C=C2C(=C(c3ccccc3)C(=O)C2C)CN1 (configuration not stated) with composite z-score of 0.2 or above?
FALSE

State whether the measured composite z-score reaches 0.2, counting equality as reaching it, for CCCNC(=O)[C@@]1(C)c2ccccc2C(=O)N(c2ccc(C)cn2)[C@H]1c1ccc(CO)cc1
FALSE

* * *

experimental details: JC-1 mitochondrial signal, unstimulated myeloma cells – cell-based, JC-1 fluorescence, RPMI8226, 24 h, 100 nL compound, profiling panel (AID 1169); also: test concentration not given here
test settings: JC-1 mitochondrial potential fluorescence, higher = more signal
quantity kind: z-score
Just the number, please.

// z-score value for C=C[C@H](C)[C@H](OC(=O)Nc1ccc(SC)cc1)c1ccc(OCCO)cc1 : -0.781

In plain terms, COCCOC(=O)N1C(=O)[C@@]2(c3cc(C#CC4=CCCCC4)ccc31)[C@H](c1ccccc1OCCO)N1[C@H](c3ccccc3)[C@H](c3ccccc3)OC(=O)[C@H]1[C@@H]2C(=O)NC[C@H](O)c1ccccc1 has a documented z-score of -0.817

Memo: [N-]=[N+]=Nc1ccccc1C[C@]1(C(=O)N2CCOCC2)COC(c2ccc(OCCCO)cc2)=N1 , reported z-score: -0.571

// z-score value for CC(C)=C1C(=O)C(c2ccccc2)=C2CN3C(=O)N(CCc4ccccc4)C(=O)[C@]3(Cc3ccc(C(F)(F)F)cc3)[C@H]21 : -0.699
